Values were extracted from patent US4029811A.

test system: abdominal stretching; assay: Anti-writhing assay (acetic acid); format: in vivo, mouse; conditions: 200 mg/Kg p.o., 20 minutes before 3% acetic acid i.p.; counted 20 minutes
Decision: % Stretching decrease from the control compared against 70%; not below it gives true, below it gives false.

[
  {
    "MOLECULE": "O=C(O)Cc1ccc2c3c(ccc2c1)OCCC3",
    "CLASS LABEL": "false"
  },
  {
    "MOLECULE": "CCCCC1C(=O)N(c2ccccc2)N(c2ccccc2)C1=O [Phenylbutazone, reference compound]",
    "CLASS LABEL": "false"
  },
  {
    "MOLECULE": "CCC1Cc2cc(CC(=O)O)ccc2O1 (centres unmarked)",
    "CLASS LABEL": "true"
  },
  {
    "MOLECULE": "CCC1CCc2cc(CC(=O)O)ccc2O1 (centres unmarked)",
    "CLASS LABEL": "false"
  },
  {
    "MOLECULE": "O=C(O)Cc1ccc2c3c(ccc2c1)OCC3",
    "CLASS LABEL": "true"
  }
]
